Where do these numbers come from? They come from BigSolDB 2.1.

Conditions: in methanol, 298.15 K
measured-endpoint: solubility (mole fraction)
I only need the number, thanks.

Exam item: Which solubility (mole fraction) reading was recorded for the compound Cc1c(C(=O)O)cccc1[N+](=O)[O-] ?
Marked response: 0.0319

---

Conditions: in ethanol, 305.65 K
measured-endpoint: solubility (mole fraction)
// return just the number, without any unit appended

Exam item: Looking for the measured solubility (mole fraction) of Cc1c(C(=O)O)cccc1[N+](=O)[O-] , can you help?
Marked response: 0.0388

---

Details: in n-propanol, 303.15 K
measured-endpoint: solubility (mole fraction)
API note: the answer field is a bare number with no unit suffix.

Exam item: Query (compound): Cc1c(C(=O)O)cccc1[N+](=O)[O-] ; field requested: solubility (mole fraction)
Marked response: 0.0291
